The reported numbers originate from ChEMBL document CHEMBL1130503.

# System: renal dehydropeptidase I (DHP-I)
# Experiment Description: Tested for Biological half life in human plasma (stability to human renal dehydropeptidase I,DHP-I).
# Type: ADME, cell-free
Endpoint: half-life (min)
Please state the figure in min; there is no need to write the unit.

>>> df
                               given_smiles  measurement_unit  measured_value
0  C=CCOC(=O)C1=C2SCCC[C@H]2[C@@H]2[C@@H]([C@@H](C)O)C(=O)N12               min              10

// next item, half-life requested
For the compound CS[C@H]1CCS[C@H]2C1=C(C(=O)[O-])N1C(=O)[C@H]([C@@H](C)O)[C@@H]21.[Na+] , what half-life is on record?
386

---

# Tested on: Clostridium perfringens
# Experiment Description: The compound was tested in vitro for the antibacterial activity against Clostridium perfringens 615E strain, activity expressed as MIC
# Assay type: functional
# Test Conditions: Clostridium perfringens; read-out: MIC
Endpoint: MIC

# example entries with known answers
>>> print(df.to_string())
                                   molecule              measured_on  endpoint  measured_value
0  CS[C@H]1CCS[C@H]2C1=C(C(=O)[O-])N1C(=O)[C@H]([C@@H](C)O)[C@@H]21.[Na+]  Clostridium perfringens       MIC      ≤ 10 µg/mL
1  C[C@@H](O)[C@H]1C(=O)N2C(C(=O)O)=C(SCCNC=N)C[C@H]12 [IMIPENEM ANHYDROUS]  Clostridium perfringens       MIC        30 µg/mL
2  C[C@@H](O)[C@H]1C(=O)N2C(C(=O)[O-])=C3CCCS[C@@H]3[C@H]12.[Na+]  Clostridium perfringens       MIC        30 µg/mL

For the molecule C=CCOC(=O)C1=C2SCCC[C@H]2[C@@H]2[C@@H]([C@@H](C)O)C(=O)N12 , what MIC is on record?
500 µg/mL

---

# Tested on: Staphylococcus aureus
# Experiment Description: The compound was tested in vitro for the antibacterial activity against Staphylococcus aureus 663E strain, activity expressed as MIC
# Assay type: functional
# Test Conditions: Staphylococcus aureus
Recorded MIC, one value per entry.

                                   compound            measured_on  measured_value
0  C[C@@H](O)[C@H]1C(=O)N2C(C(=O)[O-])=C3CCCS[C@@H]3[C@H]12.[Na+]  Staphylococcus aureus         1 µg/mL

For the compound C[C@@H](O)[C@H]1C(=O)N2C(C(=O)[O-])=C3CCSCC3[C@H]12.[K+] (stereo in doubt; 15a) , what MIC is on record?
1 µg/mL

Now the compound CS[C@H]1CCS[C@H]2C1=C(C(=O)[O-])N1C(=O)[C@H]([C@@H](C)O)[C@@H]21.[Na+]
0.2 µg/mL

Now the compound C[C@@H](O)[C@H]1C(=O)N2C(C(=O)O)=C(SCCNC=N)C[C@H]12 [IMIPENEM ANHYDROUS]
0.06 µg/mL

Now the compound C=CCOC(=O)C1=C2SCCC[C@H]2[C@@H]2[C@@H]([C@@H](C)O)C(=O)N12
1 µg/mL
